Target: UDP-3-O-acyl-N-acetylglucosamine deacetylase (Pseudomonas aeruginosa (strain ATCC 15692 / PAO1 / 1C / PRS 101 / LMG12228))
Sequence (P47205 whole entry): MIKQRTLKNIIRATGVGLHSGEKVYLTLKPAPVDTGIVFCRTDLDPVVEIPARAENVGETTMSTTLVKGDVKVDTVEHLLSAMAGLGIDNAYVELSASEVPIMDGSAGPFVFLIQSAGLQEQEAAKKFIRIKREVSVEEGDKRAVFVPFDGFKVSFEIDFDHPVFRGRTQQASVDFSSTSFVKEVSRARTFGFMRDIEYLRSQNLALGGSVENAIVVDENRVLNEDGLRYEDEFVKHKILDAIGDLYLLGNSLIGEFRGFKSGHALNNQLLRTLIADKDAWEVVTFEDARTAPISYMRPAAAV
RECORDED METRIC: IC50

1. CNC(=O)C(C(=O)NO)N(C)C(=O)c1ccc(-c2ccc(OCCCN3CCOCC3)cc2)cc1 (stereo unspecified)
6.7 nM
